Data provenance: patent US11306102B2

target: PPARγ (Homo sapiens, UniProt P37231)
Construct: expressed in transfected cells; host or cells: Hela cells
Sequence (P37231 whole entry, species assumed): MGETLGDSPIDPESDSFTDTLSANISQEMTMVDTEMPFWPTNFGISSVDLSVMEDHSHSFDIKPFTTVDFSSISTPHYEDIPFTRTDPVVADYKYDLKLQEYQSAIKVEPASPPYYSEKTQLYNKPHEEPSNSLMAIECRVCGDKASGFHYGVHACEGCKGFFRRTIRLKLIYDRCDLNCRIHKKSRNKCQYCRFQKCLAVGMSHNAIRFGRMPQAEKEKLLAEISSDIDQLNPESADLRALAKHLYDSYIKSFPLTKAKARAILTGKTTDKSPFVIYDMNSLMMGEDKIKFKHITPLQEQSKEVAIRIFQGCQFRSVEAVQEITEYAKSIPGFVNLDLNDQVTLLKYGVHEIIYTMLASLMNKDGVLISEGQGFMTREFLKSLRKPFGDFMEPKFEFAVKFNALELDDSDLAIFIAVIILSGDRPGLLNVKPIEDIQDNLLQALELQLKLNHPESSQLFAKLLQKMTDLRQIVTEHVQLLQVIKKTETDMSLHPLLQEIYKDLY
protocol_notes: Hela cell/luciferase reporter gene method, PPARγ agonist activity
Assay type: cell-based
condition_notes: compared with Elafibranor
Description: This example measures the biological activity of a PPAR agonist using the Hela cell/luciferase reporter gene method. The target plasmids PCMV PPARα (Ampicillin+), PCMV PPARγ (Ampicillin+), PCMV PPARδ (Ampicillin+), and pPPRE3-TK-Luciferase (Ampicillin+) were introduced into DH5a competent cells by heat shock treatment, respectively. […] The plasmid obtained by centrifugation was suspended in TE buffer, and the plasmid concentration was measured and the mixture was stored at −20° C. […]
assay_readout: activation of PPARγ compared with Elafibranor (in words)

INSERT INTO results (compound, target, reported_value) VALUES
  ('CSc1ccc2cc(C(=O)/C=C/c3cc(Cl)c(OC(C)(C)C(=O)O)c(Cl)c3)oc2c1 [Compound 100]', 'PPARγ (Homo sapiens, UniProt P37231)', 'significantly reduced'),
  ('CSc1ccc2c(C)c(C(=O)/C=C/c3cc(Cl)c(OC(C)(C)C(=O)O)c(Cl)c3)oc2c1 [Compound 103]', 'PPARγ (Homo sapiens, UniProt P37231)', 'significantly reduced');

====

Property: EC50; scope: individual compounds
target: PPARα (Homo sapiens, UniProt Q07869)
Sequence (Q07869 whole entry, species assumed): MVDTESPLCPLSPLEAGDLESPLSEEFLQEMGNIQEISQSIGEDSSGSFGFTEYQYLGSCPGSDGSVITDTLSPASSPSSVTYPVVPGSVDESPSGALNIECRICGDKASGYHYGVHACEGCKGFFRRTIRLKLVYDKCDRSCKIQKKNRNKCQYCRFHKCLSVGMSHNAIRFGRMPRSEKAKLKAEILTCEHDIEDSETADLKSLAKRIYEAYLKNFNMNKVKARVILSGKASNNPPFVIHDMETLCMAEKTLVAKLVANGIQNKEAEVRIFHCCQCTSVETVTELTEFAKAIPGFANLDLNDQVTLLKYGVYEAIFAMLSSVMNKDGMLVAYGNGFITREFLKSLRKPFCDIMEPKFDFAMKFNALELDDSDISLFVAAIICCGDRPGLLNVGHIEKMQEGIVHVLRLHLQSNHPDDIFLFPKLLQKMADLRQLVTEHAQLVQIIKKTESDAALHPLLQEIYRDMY
protocol_notes: Hela cell/luciferase reporter gene method, PPARα agonist activity
condition_notes: Hela cells, pPPRE3-TK-Luciferase reporter, 24 hrs incubation; read-out: agonistic activity on PPAα (EC50)
assay_readout: EC50 (nM)

INSERT INTO assay_data (smiles_input, target, assay_readout, unit_abbrev, reported_value) VALUES
  ('CSc1ccc(C(=O)/C=C/c2cc(C)c(OCC(=O)O)c(C)c2)c2occc12', 'PPARα (Homo sapiens, UniProt Q07869)', 'EC50', 'nM', 476),
  ('CSc1ccc(C(=O)/C=C/c2cc(C)c(OC(C)(C)C(=O)O)c(C)c2)c2occc12', 'PPARα (Homo sapiens, UniProt Q07869)', 'EC50', 'nM', 24.4),
  ('Cc1cc(/C=C/C(=O)c2ccc3scnc3c2)cc(C)c1OC(C)(C)C(=O)O', 'PPARα (Homo sapiens, UniProt Q07869)', 'EC50', 'nM', 366),
  ('CSc1ccc2c(C)c(C(=O)/C=C/c3cc(C)c(OC(C)(C)C(=O)O)c(C)c3)oc2c1', 'PPARα (Homo sapiens, UniProt Q07869)', 'EC50', 'nM', 16.6),
  ('CSc1ccc2cc(C(=O)/C=C/c3cc(C)c(OC(C)(C)C(=O)O)c(C)c3)oc2c1', 'PPARα (Homo sapiens, UniProt Q07869)', 'EC50', 'nM', 4),
  ('CNc1ccc(C(=O)/C=C/c2cc(C)c(OC(C)(C)C(=O)O)c(C)c2)c2occc12', 'PPARα (Homo sapiens, UniProt Q07869)', 'EC50', 'nM', 948),
  ('COc1ccc2cc(C(=O)/C=C/c3cc(C)c(OC(C)(C)C(=O)O)c(C)c3)oc2c1', 'PPARα (Homo sapiens, UniProt Q07869)', 'EC50', 'nM', 39.8),
  ('CSc1ccc2cc(C(=O)/C=C/c3cc(C(C)C)c(OC(C)(C)C(=O)O)c(C(C)C)c3)oc2c1', 'PPARα (Homo sapiens, UniProt Q07869)', 'EC50', 'nM', 477);

====

protocol_notes: Pharmacokinetic (PK) experiments after intragastric administration in rats
Assay type: in vivo, SD rats
condition_notes: male, SD, rat, plasma, po, intragastric administration 20 mg/kg
# Tmax listing for each entry below
assay_readout: Tmax (min)

INSERT INTO measurements (molecule, unit_abbrev, reported_value) VALUES
  ('COc1ccc2cc(C(=O)/C=C/c3cc(C)c(OC(C)(C)C(=O)O)c(C)c3)oc2c1', 'min', 15),
  ('CSc1ccc2cc(C(=O)/C=C/c3cc(C)c(OC(C)(C)C(=O)O)c(C)c3)sc2c1', 'min', 15),
  ('CSc1ccc2c(C)c(C(=O)/C=C/c3cc(C)c(OC(C)(C)C(=O)O)c(C)c3)oc2c1', 'min', 15),
  ('Cc1cc(/C=C/C(=O)c2ccc3c(c2)CCS3)cc(C)c1OC(C)(C)C(=O)O', 'min', 22.8),
  ('CSc1ccc2c(C)c(C(=O)/C=C/c3cc(Cl)c(OC(C)(C)C(=O)O)c(Cl)c3)oc2c1', 'min', 245),
  ('CSc1ccc2cc(C(=O)/C=C/c3cc(Cl)c(OC(C)(C)C(=O)O)c(Cl)c3)oc2c1', 'min', 15),
  ('CSc1ccc2cc(C(=O)/C=C/c3cc(C)c(OC(C)(C)C(=O)O)c(C)c3)oc2c1', 'min', 15),
  ('CSc1ccc(C(=O)/C=C/c2cc(C)c(OC(C)(C)C(=O)O)c(C)c2)c2occc12', 'min', 15),
  ('CSc1ccc(C(=O)/C=C/c2cc(C)c(OC(C)(C)C(=O)O)c(C)c2)cc1 [Elafibranor, reference compound]', 'min', 19.8),
  ('CCc1c(C(=O)/C=C/c2cc(C)c(OC(C)(C)C(=O)O)c(C)c2)oc2cc(SC)ccc12', 'min', 15);

====

log10 of half-life by entry:
protocol_notes: Pharmacokinetic (PK) experiments after intragastric administration in rats
Format: in vivo, SD rats
condition_notes: male, SD, rat, plasma, po, intragastric administration 20 mg/kg, read-out: Terminal T1/2 (converted)
assay_readout: log10 of half-life (log10 of the value in h)

INSERT INTO assay_data (compound, reported_value) VALUES
  ('CSc1ccc2cc(C(=O)/C=C/c3cc(C)c(OC(C)(C)C(=O)O)c(C)c3)sc2c1', 0.53),
  ('Cc1cc(/C=C/C(=O)c2ccc3c(c2)CCS3)cc(C)c1OC(C)(C)C(=O)O', 0.81),
  ('CSc1ccc2c(C)c(C(=O)/C=C/c3cc(Cl)c(OC(C)(C)C(=O)O)c(Cl)c3)oc2c1', 0.52),
  ('CSc1ccc(C(=O)/C=C/c2cc(C)c(OC(C)(C)C(=O)O)c(C)c2)c2occc12', 1.09),
  ('CSc1ccc2cc(C(=O)/C=C/c3cc(Cl)c(OC(C)(C)C(=O)O)c(Cl)c3)oc2c1', 0.64),
  ('CCc1c(C(=O)/C=C/c2cc(C)c(OC(C)(C)C(=O)O)c(C)c2)oc2cc(SC)ccc12', 0.63),
  ('CSc1ccc2c(C)c(C(=O)/C=C/c3cc(C)c(OC(C)(C)C(=O)O)c(C)c3)oc2c1', 0.95),
  ('CSc1ccc(C(=O)/C=C/c2cc(C)c(OC(C)(C)C(=O)O)c(C)c2)cc1 [Elafibranor, reference compound]', -0.09),
  ('CSc1ccc2cc(C(=O)/C=C/c3cc(C)c(OC(C)(C)C(=O)O)c(C)c3)oc2c1', 1.09),
  ('COc1ccc2cc(C(=O)/C=C/c3cc(C)c(OC(C)(C)C(=O)O)c(C)c3)oc2c1', 0.84);

====

target: PPARδ (Homo sapiens, UniProt Q03181)
Sequence (Q03181 whole entry, species assumed): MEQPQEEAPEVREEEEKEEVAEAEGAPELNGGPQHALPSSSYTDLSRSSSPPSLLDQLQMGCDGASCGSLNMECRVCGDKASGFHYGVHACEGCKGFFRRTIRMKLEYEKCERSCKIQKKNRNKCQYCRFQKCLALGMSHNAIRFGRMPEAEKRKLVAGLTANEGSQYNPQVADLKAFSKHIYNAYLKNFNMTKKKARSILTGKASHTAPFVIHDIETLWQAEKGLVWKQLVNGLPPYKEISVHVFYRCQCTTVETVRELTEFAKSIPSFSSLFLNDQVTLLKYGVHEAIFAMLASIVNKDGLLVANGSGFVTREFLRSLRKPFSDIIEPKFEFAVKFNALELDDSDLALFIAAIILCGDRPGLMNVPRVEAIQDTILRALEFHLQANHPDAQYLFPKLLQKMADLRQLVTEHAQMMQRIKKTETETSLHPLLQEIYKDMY
protocol_notes: Hela cell/luciferase reporter gene method, PPARδ agonist activity
condition_notes: Hela cells, pPPRE3-TK-Luciferase reporter, 24 hrs incubation; read-out: agonistic activity on PPARδ (EC50)
Lab note: anything with EC50 below 200 nM is marked Y; values at 200 nM or higher are marked N.

INSERT INTO results (smiles_input, assigned_class) VALUES
  ('CSc1ccc2c(C)c(C(=O)/C=C/c3cc(Cl)c(OC(C)(C)C(=O)O)c(Cl)c3)oc2c1', 'Y'),
  ('CCSc1ccc(C(=O)/C=C/c2cc(C)c(OC(C)(C)C(=O)O)c(C)c2)c2occc12', 'Y'),
  ('CSc1ccc2cc(C(=O)/C=C/c3cc(C)c(OC(C)(C)C(=O)O)c(C)c3)oc2c1', 'Y'),
  ('CSc1ccc(C(=O)/C=C/c2cc(C)c(OC(C)(C)C(=O)O)c(C)c2)c2occc12', 'Y'),
  ('CSc1ccc(C(=O)/C=C/c2cc(C)c(OC(C)(C)C(=O)O)c(C)c2)c2ccoc12', 'N'),
  ('Cc1cc(/C=C/C(=O)c2ccc3sccc3c2)cc(C)c1OC(C)(C)C(=O)O', 'N'),
  ('COc1ccc2cc(C(=O)/C=C/c3cc(C)c(OC(C)(C)C(=O)O)c(C)c3)oc2c1', 'N'),
  ('CCSc1ccc2c(C)c(C(=O)/C=C/c3cc(C)c(OC(C)(C)C(=O)O)c(C)c3)oc2c1', 'Y'),
  ('CSc1ccc2c(C)c(C(=O)/C=C/c3cc(C)c(OC(C)(C)C(=O)O)c(C)c3)oc2c1', 'N'),
  ('CSc1cccc2oc(C(=O)/C=C/c3cc(C)c(OC(C)(C)C(=O)O)c(C)c3)cc12', 'N'),
  ('Cc1cc(/C=C/C(=O)c2ccc3c(c2)CCS3)cc(C)c1OC(C)(C)C(=O)O', 'Y'),
  ('CSc1ccc2cc(C(=O)/C=C/c3cc(Cl)c(OC(C)(C)C(=O)O)c(Cl)c3)oc2c1', 'Y'),
  ('CSc1ccc2cc(C(=O)/C=C/c3cc(C)c(OC(C)(C)C(=O)O)c(C)c3)sc2c1', 'N');
